Provide the reported Kd of each item.
- target_entity: T1, PLCγ2 SH2-SH2-SH3 (tandem SH2 domains plus the SH3 domain of PLCγ2) (human, UniProt P16885 519-838)
- T1 construct: PLCγ2, human, tandem SH2 domains plus SH3 domain, aa 519–838; Printed MW = 42415 of the recombinant protein; also called recombinant PLCγ2 SH2 domains; source: E. coli BL21(DE3)pLysS, purified (Co2+ or Ni2+ column, size exclusion chromatography, same day as SPR)
- T1 sequence: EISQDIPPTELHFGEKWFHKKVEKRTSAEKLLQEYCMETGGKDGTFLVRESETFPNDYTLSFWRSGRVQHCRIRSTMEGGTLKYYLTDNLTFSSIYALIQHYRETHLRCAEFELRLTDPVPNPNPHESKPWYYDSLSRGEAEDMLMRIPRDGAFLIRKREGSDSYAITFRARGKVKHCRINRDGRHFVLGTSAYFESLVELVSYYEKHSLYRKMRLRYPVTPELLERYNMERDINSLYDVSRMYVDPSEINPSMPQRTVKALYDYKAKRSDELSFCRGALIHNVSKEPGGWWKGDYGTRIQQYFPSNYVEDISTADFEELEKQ
- assay_overview: SPR; biotinylated phosphopeptides immobilised on streptavidin chip (about 25 RU single motifs); soluble recombinant protein injected in two-fold dilutions; 37°C; HBS-EP (10 mM HEPES pH 7.4, 150 mM NaCl, 3.4 mM EDTA, 0.005% P20); equilibrium binding, one-site model; proteins purified on the same day as SPR (Tables 1 and 6)
- condition_description: both partners purified
Non-standard residues stand in square brackets, D forms with d. No end group written: not given here. *: point of attachment. Biotin = O=C1N[C@H]2[C@H](CS[C@H]2CCCCC(=O)*)N1; pY = N[C@@H](Cc1ccc(OP(=O)(O)O)cc1)C(=O)O
Kindly report the value followed by its unit.

Answered cases to consult:
# binder, Kd
rows = [
    ("Biotin-NSNSD[pY]VDVLP (EAT-2, human, tail with the conserved tyrosine motif Y127; also called EAT-2 pY127; EAT-2 tail phosphopeptide; source: synthetic peptide (Peptide Protein Research Ltd)) [EAT-2 Y127 phosphopeptide (Biotin-NSNSDpYVDVLP)]", "0.03 µM"),
    ("Biotin-HNPG[pY]LVVLPD (LAT, human, stretch around Y132; also called LAT pY132; source: synthetic peptide (Peptide Protein Research Ltd)) [LAT Y132 phosphopeptide (Biotin-HNPGpYLVVLPD)]", "0.02 µM"),
]

Note: attention shifts to another entry.
query: Reported Kd, binder Biotin-EFLTI[pY]EDVKD (CD244 (SLAMF4), human, cytoplasmic ITSM1; also called SLAMF4 ITSM1; source: synthetic peptide (Peptide Protein Research Ltd)) [CD244 ITSM1 phosphopeptide (Biotin-EFLTIpYEDVKD)] : ____
result: 0.21 µM
